procedure-details: Deep sequencing and sequence family analysis of parallel assessment populations, acyclovir candidates
Format: binding
experimental-parameters: sequenced final generation library responding to 1X selection buffer
endpoint: presence in the negative population

substance	endpoint	measured-result
F1A-996: acyclovir aptamer candidate; SEQ ID NO:221 (ACAGGGTAGCATAATGGCTTAGGACGCCTTCAAACCTATCAAGACT; RNA riboswitch aptamer, listed DNA covers non-stem region only, further chemistry not given here) [Candidate F1A-996]	presence in the negative population	performing less well
F1A-946: acyclovir aptamer candidate, most prevalent sequence of family 946; SEQ ID NO:198 (ACAGCGTAGCATAATGGGCTGCAGACGCCGTCAAACCTATTTGCAGACT; RNA riboswitch aptamer, listed DNA covers non-stem region only, further chemistry not given here) [Candidate F1A-946]	presence in the negative population	not found
F1A-961: acyclovir aptamer candidate; SEQ ID NO:220 (ACACCGTAGCATAATGGGCTACTGCCGCCGTCGACCTTTTGGAGACT; RNA riboswitch aptamer, listed DNA covers non-stem region only, further chemistry not given here) [Candidate F1A-961]	presence in the negative population	performing less well
F1A-935: acyclovir aptamer candidate, most prevalent sequence of family 935; SEQ ID NO:183 (ACAGGGTAGCATAATGGGCTACTTGACGCCTTCACCTATTTGTAGACT; RNA riboswitch aptamer, listed DNA covers non-stem region only, further chemistry not given here) [Candidate F1A-935]	presence in the negative population	not found
F1A-795: acyclovir aptamer candidate, most prevalent sequence of family 795; SEQ ID NO:164 (ACAGCGAAGCATAATGGCTACTGACGCCCTCAAACCCTATTTGCAGACT; RNA riboswitch aptamer, listed DNA covers non-stem region only, further chemistry not given here) [Candidate F1A-795]	presence in the negative population	performing less well

* * *

procedure-details: Deep sequencing and sequence family analysis of parallel assessment populations, acyclovir candidates
Type: binding
experimental-parameters: ratio between final positive and penultimate positive population
endpoint: Enrichment rate

substance	measured-result
F1A-946: acyclovir aptamer candidate, most prevalent sequence of family 946; SEQ ID NO:198 (ACAGCGTAGCATAATGGGCTGCAGACGCCGTCAAACCTATTTGCAGACT; RNA riboswitch aptamer, listed DNA covers non-stem region only, further chemistry not given here) [Candidate F1A-946]	performing adequately
F1A-935: acyclovir aptamer candidate, most prevalent sequence of family 935; SEQ ID NO:183 (ACAGGGTAGCATAATGGGCTACTTGACGCCTTCACCTATTTGTAGACT; RNA riboswitch aptamer, listed DNA covers non-stem region only, further chemistry not given here) [Candidate F1A-935]	performing adequately
F1A-769: acyclovir aptamer candidate, most prevalent sequence of family 769; SEQ ID NO:147 (ACAGGTCAGCATAATGTGCTAGTGCGCCTTCAAACCTATTTAGAGACT; RNA riboswitch aptamer, listed DNA covers non-stem region only, further chemistry not given here) [Candidate F1A-769]	performing adequately

* * *

procedure-details: Deep sequencing and sequence family analysis of parallel assessment populations, acyclovir candidates
Type: binding
experimental-parameters: sequenced final generation library responding to counter-targets
From the text: The Illumina MiSeq system (San Diego, CA) was implemented to sequence the aptamer libraries after parallel assessment using a single-end read technique. Deep sequencing and subsequent data analysis reduces the large number of screening rounds traditional SELEX requires, which may introduce error and bias due to the screening process (Schütze et al., 2011). […]
endpoint: presence in the counter-targets population

substance	measured-result
F1A-935: acyclovir aptamer candidate, most prevalent sequence of family 935; SEQ ID NO:183 (ACAGGGTAGCATAATGGGCTACTTGACGCCTTCACCTATTTGTAGACT; RNA riboswitch aptamer, listed DNA covers non-stem region only, further chemistry not given here) [Candidate F1A-935]	not detected
F1A-795: acyclovir aptamer candidate, most prevalent sequence of family 795; SEQ ID NO:164 (ACAGCGAAGCATAATGGCTACTGACGCCCTCAAACCCTATTTGCAGACT; RNA riboswitch aptamer, listed DNA covers non-stem region only, further chemistry not given here) [Candidate F1A-795]	not detected
